Each entry below carries its recorded z-score.
- assayText: CREB reporter modulators without forskolin, primary screen, cell-based, PC12, CRE-LacZ reporter, unstimulated (AID 1145)
- measurementConditions: no forskolin, luminescence, 4.5 h, higher = more signal, called active from +8 up or from −8 down
Enter a number only.

[[record]]
compound = "COc1ccc([Si](C)(C)[C@H]2[C@H](CC(=O)N3CCC[C@H]3CO)O[C@@]3(C(=O)N(Cc4cccc(N5CCCCC5=O)c4)c4ccccc43)[C@@H]2C)cc1"
testresult = 2.88

[[record]]
compound = "C=CCOC(=O)[C@H]1[C@@H]2C(=O)O[C@@H](c3ccccc3)[C@@H](c3ccccc3)N2[C@@H](c2ccc(OCCOC(=O)[C@@H]3C[C@@H]4C(=O)N[C@@H](Cc5ccccc5)C(=O)N4[C@@H]3c3ccc(O)cc3)cc2)[C@]12C(=O)Nc1ccc(I)cc12"
testresult = 0.81

[[record]]
compound = "Cc1ccc(S[C@]2(C(=O)NC(C)C)CC(=O)N(Cc3ccccc3)[C@@H]2c2ccc(CO)cc2I)cc1"
testresult = 0.0548

[[record]]
compound = "C[N+](C)(C)CCCC[C@@H]1NC(=O)[C@H]2C[C@@H](C(=O)O)[C@@H](c3ccc(O)cc3)N2C1=O"
testresult = 0.285

[[record]]
compound = "CO[C@H]1O[C@H](CO)[C@@H](OC(=O)Nc2cccc(F)c2)[C@H](OC(=O)c2cc3ccccc3[nH]2)[C@H]1OC(=O)c1cc2ccccc2[nH]1"
testresult = 1.03


Task item: Please list z-score recorded for the compound CCCCCCc1nc(-c2ccc(OC)nc2)c(C)c2c1[Si](C(C)C)(C(C)C)OC2
Reply: 0.106

Task item: Please list z-score recorded for the compound CC1(C)OB(/C=C\CC(OC(=O)c2ccncc2)c2ccccc2)OC1(C)C (stereo unspecified)
Reply: 3.3

====

- assayedSystem: Concanavalin-A (Canavalia ensiformis) (UniProt P02866)
- Sequence (P02866 whole entry, looked up): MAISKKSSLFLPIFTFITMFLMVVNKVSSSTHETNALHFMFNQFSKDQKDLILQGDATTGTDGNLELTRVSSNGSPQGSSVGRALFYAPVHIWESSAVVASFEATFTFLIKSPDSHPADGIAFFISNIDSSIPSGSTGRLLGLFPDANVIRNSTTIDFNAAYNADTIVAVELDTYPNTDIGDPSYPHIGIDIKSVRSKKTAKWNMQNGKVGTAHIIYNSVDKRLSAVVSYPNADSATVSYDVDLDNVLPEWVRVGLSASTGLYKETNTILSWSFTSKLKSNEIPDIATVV
- assayText: ConA small-molecule binders, primary screen, artefact control for SMM control protein annotation, biochemical, small-molecule microarray, Alexa647 label, 635 nm (AID 1127);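 also: z combines 667 nm emission intensity with signal-to-noise across three replicate slides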
- measurementConditions: ConA-A647 binding fluorescence, higher = more signal
Each entry below carries its recorded composite z-score.
Enter a number only.

Below, 3 compounds whose answers are already recorded.
[[record]]
compound = "Cc1ccc(S[C@]2(C(=O)NCc3ccccc3)CC(=O)N(Cc3ccccc3Cl)[C@@H]2c2ccc(CO)cc2)cc1"
quantity = "composite z-score"
testresult = 0.439

[[record]]
compound = "C=CCNC(=O)[C@@H]1[C@H]2C(=O)O[C@H](c3ccccc3)[C@H](c3ccccc3)N2[C@H](c2ccc(O)cc2)[C@@]12C(=O)N(C(=O)OCCOC)c1ccc(C#CCC(C(=O)OC)C(=O)OC)cc12"
quantity = "composite z-score"
testresult = 0.601

[[record]]
compound = "CCCCN1CC=CC23O[C@@H]4/C=C\\CCCOC(=O)C4[C@H]2C(=O)N(CCCCCCO)[C@@H]3C1=O (some centres not stated)"
quantity = "composite z-score"
testresult = -0.535


Task item: Under Concanavalin-A (Canavalia ensiformis) (UniProt P02866): report composite z-score of COCCCNC(=O)[C@@]1(Cc2ccccc2I)c2ccccc2C(=O)N(Cc2ccccc2OC)[C@H]1c1ccc(CO)cc1 .
Reply: 0.911

Task item: Under Concanavalin-A (Canavalia ensiformis) (UniProt P02866): report composite z-score of O=C1NC(=O)C2C1C=CC(C(O)C(c1ccccc1)c1ccccc1)N2Nc1ccccn1 (configuration not stated) .
Reply: -0.516

Task item: Under Concanavalin-A (Canavalia ensiformis) (UniProt P02866): report composite z-score of CCCC[C@@H](O)C1=C(C)Cn2c(=O)n(-c3ccccc3)c(=O)n2[C@H]1CO .
Reply: -0.827

Task item: Under Concanavalin-A (Canavalia ensiformis) (UniProt P02866): report composite z-score of COCCCNC(=O)[C@@]1(c2ccc([N+](=O)[O-])cc2)CC(=O)N(C2CCCCC2)[C@@H]1c1ccc(CO)cc1I .
Reply: 1.14

====

- Test system: PRMT1 (protein arginine N-methyltransferase 1)
- assayText: PRMT1 binders on small-molecule microarrays, primary screen, biochemical, small-molecule microarray, 635 nm fluorescence (AID 1088);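 also: binding of Prmt1 protein to compounds spotted on small-molecule microarray slides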
- measurementConditions: small-molecule microarray binding, higher = more signal
Each entry below carries its recorded composite z-score.

Below, 3 molecules whose answers are already recorded.
[[record]]
compoundsmiles = "CCCN1C(=O)[C@@]2(c3ccc([N+](=O)[O-])cc3)CC(=O)N(C3CCCCC3)[C@@H]2c2ccc(CO)cc21"
testresult = 0.254

[[record]]
compoundsmiles = "CCCC[C@@H](O)C1=C(C)Cn2c(=O)n(-c3ccccc3)c(=O)n2[C@H]1CO"
testresult = -0.23

[[record]]
compoundsmiles = "CO[C@H]1O[C@H](CO)[C@@H](OC(=O)Nc2cccc(F)c2)[C@H](OC(=O)c2cc3ccccc3[nH]2)[C@H]1OC(=O)c1cc2ccccc2[nH]1"
testresult = 0.669


Task item: Please list composite z-score recorded for the molecule C=CCNC(=O)[C@@H]1[C@H]2C(=O)O[C@H](c3ccccc3)[C@H](c3ccccc3)N2[C@H](c2ccc(OCCO)cc2)[C@@]12C(=O)Nc1ccc(C#CC3=CCCCC3)cc12
Reply: 1.54

====

- assayedSystem: Neurogenic locus notch homolog protein 3 (Homo sapiens)
- assayText: NOTCH3 binders on small-molecule microarray, primary screen, biochemical, 635/667 nm fluorescence (AID 1096)
- measurementConditions: NOTCH3 binding, 635 nm fluorescence, higher = more signal
Each entry below carries its recorded composite z-score.
Enter a number only.

Below, 2 molecules whose answers are already recorded.
[[record]]
compoundsmiles = "C=C(COC)/C(=C/C[C@@H](OC(=O)c1ccncc1)c1ccccc1OCCO)c1cnc2ccccc2c1"
testresult = 1.02

[[record]]
compoundsmiles = "O=C1N(Cc2ccccc2)Cc2ccccc2C[C@@]12COC(c1ccc(OCCCO)cc1)=N2"
testresult = 0.117


Task item: Under Neurogenic locus notch homolog protein 3 (Homo sapiens): report composite z-score of CN(C)C(=O)[C@]1(CCS(=O)(=O)c2ccccc2)N=C(c2ccc(OCCCO)cc2)O[C@@H]1c1ccccc1CN=[N+]=[N-] .
Reply: 1.09

Task item: Under Neurogenic locus notch homolog protein 3 (Homo sapiens): report composite z-score of COC(=O)[C@]1(Cc2ccccc2CN=[N+]=[N-])N=C(c2ccc(OCCCO)cc2)O[C@@H]1c1ccccc1N=[N+]=[N-] .
Reply: -0.122

====

- assayText: modulators of S6 phosphorylation in cells, primary screen, cell-based, A549, cytoblot, luminescence, serum-stimulated (AID 1158);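 also: serum-stimulated A549 lung adenocarcinoma cells; signal is phosphorylated S6 detected by cytoblot immunostaining with HRP secondary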
- measurementConditions: A549 phospho-S6 cytoblot, 5 h, higher = more signal
Output 1 for z-score not less than -0.1; output -1 otherwise.

[[record]]
molecule = "CC1CC/C=C\\[C@H]2OC34C=CCN(C(C)C)C(=O)[C@H]3N(C(C)CO)C(=O)[C@@H]4C2C(=O)O1 (some centres not stated)"
assignedlabel = 1

[[record]]
molecule = "COC(=O)C(CC#Cc1ccc2c(c1)[C@]1(C(=O)N2)[C@H](C(=O)N2CCCCCCC2)[C@H]2C(=O)O[C@H](c3ccccc3)[C@H](c3ccccc3)N2[C@@H]1c1ccc(OCCO)cc1)C(=O)OC"
assignedlabel = -1

[[record]]
molecule = "COC(=O)C1=CC(CCCO)=CC(c2ccc(CN3CCCC3)cc2)N(C)C=C1C(=O)OC (configuration not stated)"
assignedlabel = -1

[[record]]
molecule = "COCCCNC(=O)[C@@]1(Cc2ccccc2I)c2ccccc2C(=O)N(Cc2ccccc2C(F)(F)F)[C@H]1c1ccc(CO)cc1"
assignedlabel = -1

[[record]]
molecule = "CCCCCN1CC=CC23O[C@@H]4/C=C\\CCCOC(=O)C4[C@H]2C(=O)N(CCO)[C@@H]3C1=O (some centres not stated)"
assignedlabel = 1

[[record]]
molecule = "CCOC(=O)C1=C[C@@H](C(C)(C)C)N(S(=O)(=O)c2ccc(C)cc2)[C@H]1c1ccc(OC)cc1"
assignedlabel = -1


Turning now to a further record.
Task item: Is it the case that [N-]=[N+]=NCc1ccccc1[C@H]1OC(c2ccc(OCCCO)cc2)=N[C@@]1(CCS(=O)(=O)c1ccccc1)C(=O)NCCN1CCOCC1 has z-score reaching or exceeding -0.1?
Reply: -1

====

- assayText: basal MM1S mitochondrial membrane potential changes, profiling panel, cell-based, JC-1 fluorescence, 24 h, 100 nL compound (AID 1170); also: test concentration not given here
- measurementConditions: higher = more signal
quantity: z-score
Enter a number only.

Below, 5 compounds whose answers are already recorded.
[[record]]
compound = "CN1C(=O)C2C=CC(C(O)c3cccs3)N(N(c3ccccc3)c3ccccc3)C2C1=O (configuration not stated)"
testresult = -0.694

[[record]]
compound = "Cc1ccc(S[C@]2(C(=O)NCC(C)C)CC(=O)N(C(C)C)[C@@H]2c2ccc(CO)cc2I)cc1"
testresult = -1.19

[[record]]
compound = "COC(=O)C(CC#Cc1ccc2c(c1)[C@]1(C(=O)N2)[C@H](c2ccc(OCCO)cc2)N2[C@H](c3ccccc3)[C@H](c3ccccc3)OC(=O)[C@H]2[C@@H]1C(N)=O)C(=O)OC"
testresult = -0.927

[[record]]
compound = "C=CC[C@]1(C(N)=O)N=C(c2ccc(OCCCO)cc2)O[C@H]1c1ccccc1N=[N+]=[N-]"
testresult = -0.747

[[record]]
compound = "CCOC(=O)C[C@H]1[C@H](OC(=O)Cc2ccc3c(c2)OCO3)[C@@H](NC(=O)CC(C)C)c2cc(OCCCO)ccc2N1C(=O)c1ccc2ccccc2n1"
testresult = -0.659


Task item: Please list z-score recorded for the compound [N-]=[N+]=Nc1ccccc1C[C@]1(C(=O)N2CCCCC2)N=C(c2ccc(OCCCO)cc2)O[C@H]1c1ccccc1
Reply: -2.15

Task item: Please list z-score recorded for the compound CC[C@@H](O[Si](C#C[Si](C(C)C)(C(C)C)C(C)C)(C(C)C)C(C)C)c1cn([C@H](C)c2ccccc2)nn1
Reply: -0.876

meta.source: PubChem BioAssay
